# Assay Overview: in vivo
# Condition Context: female, mouse, in vivo
# Description: The dose of 60 mg/kg was selected as the rational maximum therapeutic dose based on investigator experience with this agent.
Endpoint Name: MTD at 14 days

Smiles Representation	Endpoint Name	Experimental Result
C#Cc1cccc(Nc2ncnc3cc(OCCOC)c(OCCOC)cc23)c1	MTD at 14 days	100 mg/kg
